Reference source: PubChem BioAssay (Tox21)

assay: qHTS assay to test for compound auto fluorescence at 535 nm (green) in HepG2 cells (AID 720675); conditions: green autofluorescence 485/535 nm, 1 h; series mostly up to 91.3 µM
The source made the active and inactive calls. The call rests on the fitted dose curve; in most records, active means well fitted curve in the direction sought with a large enough effect in the repeat runs; inconclusive means weak or mixed curves; inactive means flat fitted curve, though single readings scatter.
assay.endpoint: outcome

OC[C@@H](O)[C@H]1O[C@@H]2O[C@H](C(Cl)(Cl)Cl)O[C@@H]2[C@H]1O : inactive
CN1C(=O)CCS(=O)(=O)C1c1ccc(Cl)cc1 (configuration not stated) : inactive
N#CN=C(N)N : inactive
O=C(O)CCCc1ccc(N(CCCl)CCCl)cc1 : inactive
CN(C)CCC#N : inactive
Nc1ccc(N)cc1 : inactive

Now consider the entry below.
Prompt: Quick one: outcome for CCOP(=S)(OCC)Oc1ccc([N+](=O)[O-])cc1 ?
Completion: inactive
